# System: SNB-75
# METHOD NOTES: Growth inhibition of human SNB75 cells by sulforhodamine B assay
# Format: functional
# ASSAY CONTEXT: read-out: pGI50 (converted)
Known GI50 of a selection of compounds
READOUT TYPE: GI50 (µM)

• C/C=C(/C)C(=O)O[C@@H]1CC(C)(C)C[C@H]2C3=CC[C@@H]4[C@@]5(C)CC[C@H](O)C(C)(C)[C@@H]5CC[C@@]4(C)[C@]3(C)CC[C@@]12C(=O)O = 1.78
• CC(C)=CC(=O)O[C@@H]1CC(C)(C)C[C@H]2C3=CC[C@@H]4[C@@]5(C)CC[C@H](O)C(C)(C)[C@@H]5CC[C@@]4(C)[C@]3(C)CC[C@@]12C(=O)O = 12.9
• CC1(C)C[C@@H](O)[C@]2(C(=O)O)CC[C@]3(C)C(=CC[C@@H]4[C@@]5(C)C/C(=C\C=C\c6ccccc6)C(=O)C(C)(C)[C@@H]5CC[C@]43C)[C@@H]2C1 = 4.27
• CC(C)=CC(=O)O[C@@H]1CC(C)(C)C[C@H]2C3=CC[C@@H]4[C@@]5(C)CCC(=O)C(C)(C)[C@@H]5CC[C@@]4(C)[C@]3(C)CC[C@@]12C(=O)O = 7.76
• C/C=C(/C)C(=O)O[C@@H]1CC(C)(C)C[C@H]2C3=CC[C@@H]4[C@@]5(C)CCC(=O)C(C)(C)[C@@H]5CC[C@@]4(C)[C@]3(C)CC[C@@]12C(=O)O = 14.1
